target: Muscarinic acetylcholine receptor M1 (Bos taurus)
Sequence (Q8WMX0 whole entry): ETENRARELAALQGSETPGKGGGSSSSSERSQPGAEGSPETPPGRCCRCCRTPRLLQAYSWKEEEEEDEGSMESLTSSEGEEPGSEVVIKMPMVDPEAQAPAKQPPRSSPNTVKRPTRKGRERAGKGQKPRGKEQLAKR
MEASURE_NAME: pKi
Scale explanation: pKi corresponds to minus log10 of a concentration expressed in moles per litre.

Looking for the measured pKi of `C[N+]1(C)CCC(OC(=O)[C@](O)(c2ccccc2)C2CCCCC2)CC1.[I-]` , can you help?
10.70

----------
Form field: Ki (one value per entry).
Target: Muscarinic acetylcholine receptor M1 (Rattus norvegicus)
Sequence (P08482 whole entry): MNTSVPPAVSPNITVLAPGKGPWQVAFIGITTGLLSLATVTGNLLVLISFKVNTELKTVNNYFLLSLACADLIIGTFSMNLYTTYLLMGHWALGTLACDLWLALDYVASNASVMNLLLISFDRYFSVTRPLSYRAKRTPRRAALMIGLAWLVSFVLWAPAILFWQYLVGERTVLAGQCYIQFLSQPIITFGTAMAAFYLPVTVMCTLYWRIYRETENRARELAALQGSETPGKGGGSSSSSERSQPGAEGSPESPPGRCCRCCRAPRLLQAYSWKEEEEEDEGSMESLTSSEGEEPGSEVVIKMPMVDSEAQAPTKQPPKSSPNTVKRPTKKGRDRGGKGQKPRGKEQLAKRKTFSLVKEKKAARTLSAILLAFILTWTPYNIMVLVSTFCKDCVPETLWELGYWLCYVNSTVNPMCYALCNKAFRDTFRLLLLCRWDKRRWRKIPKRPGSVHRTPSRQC
I only need the number, in nM, no unit after it.

Ki lookup needed for `C[N+]12CCC(CC1)[C@@H](OC(=O)C(O)(c1ccccc1)c1ccccc1)C2` , thanks.
0.13

Another: `C[N+]1(C)CCC(OC(=O)[C@](O)(c2ccccc2)C2CCCCC2)CC1.[I-]`
0.01

----------
target: UniProt:P10980
Sequence (P10980 whole entry): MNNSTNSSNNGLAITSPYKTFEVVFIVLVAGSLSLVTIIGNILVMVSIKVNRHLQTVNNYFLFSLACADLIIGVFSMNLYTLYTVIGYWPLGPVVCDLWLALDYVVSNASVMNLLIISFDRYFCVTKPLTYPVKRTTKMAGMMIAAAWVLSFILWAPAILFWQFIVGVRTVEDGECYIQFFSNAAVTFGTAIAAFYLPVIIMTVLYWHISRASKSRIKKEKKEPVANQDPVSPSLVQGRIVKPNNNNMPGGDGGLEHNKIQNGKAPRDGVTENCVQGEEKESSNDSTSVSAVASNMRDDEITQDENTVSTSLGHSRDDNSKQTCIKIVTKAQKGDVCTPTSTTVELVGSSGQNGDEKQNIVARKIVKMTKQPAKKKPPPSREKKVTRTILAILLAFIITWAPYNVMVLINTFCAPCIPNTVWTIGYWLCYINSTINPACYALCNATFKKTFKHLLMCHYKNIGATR
MEASURE_NAME: pKi
Scale explanation: pKi corresponds to minus log10 of a concentration expressed in moles per litre.

CHEMICAL_SMILES: C[N+]1(C)CCC(OC(=O)[C@](O)(c2ccccc2)C2CCCCC2)CC1.[I-]
RESULT: 9.68

UniProt:P10980 / pKi / `C[N+]12CCC(CC1)[C@@H](OC(=O)C(O)(c1ccccc1)c1ccccc1)C2` : value?
9.37

----------
molecular target: Muscarinic acetylcholine receptor M3 (Rattus norvegicus)
MEASURE_NAME: Ki (nM)
Hi! Could you send only the number? It should be in nM, unit omitted.

Entry under review: `C[N+]12CCC(CC1)[C@@H](OC(=O)C(O)(c1ccccc1)c1ccccc1)C2` . Reported Ki?
0.65
